The reported numbers originate from patent US7381749B2.

# Test system: HDAC in cells
# Protocol: Cellular IC50 (cellular assays: histone hyperacetylation cytoblot / differential cytotoxicity)
# Format: cell-based
# Experimental Context: transformed cell lines (e.g. HeLa, A549, MCF-7); cell line not specified
pIC50: −log10 of the molar value.
pIC50 by entry:

# annotated cases, reported pIC50 shown
[[record]]
structure_notation = "CC(=O)SCC(=O)c1ccc(NS(=O)(=O)c2cc(C)oc2C)cc1"
reading = "> 5.00"

[[record]]
structure_notation = "CC(=O)SCC(=O)c1ccc(NS(=O)(=O)c2ccccc2Cl)cc1"
reading = "> 6.00"

[[record]]
structure_notation = "CC(=O)SCC(=O)c1ccc2c(ccn2S(=O)(=O)c2ccccc2)c1"
reading = "> 6.00"


Entry `CC(=O)SCC(=O)c1ccc(NS(=O)(=O)c2sc(C)nc2C)cc1` needs its pIC50 filled in; supply it.
> 6.00

Entry `CC(=O)SCC(=O)c1cccc(NS(=O)(=O)c2ccc(OC(F)(F)F)cc2)c1` needs its pIC50 filled in; supply it.
> 6.00

* * *

# System: HDAC in cells
# Protocol: Cellular IC50 (cellular assays: histone hyperacetylation cytoblot / differential cytotoxicity)
# Assay type: cell-based
# Experimental Context: transformed cell lines (e.g. HeLa, A549, MCF-7); cell line not specified
Parameter: IC50

# annotated cases, reported IC50 shown
[[record]]
structure_notation = "CC(=O)SCC(=O)c1ccc(NS(=O)(=O)c2ccc(OC(F)(F)F)cc2)cc1Cl"
parameter = "IC50"
reading = "< 50 µM"

[[record]]
structure_notation = "CC(=O)SCC(=O)c1ccc(NS(=O)(=O)c2ccc(F)cc2)cc1"
parameter = "IC50"
reading = "< 1 µM"

[[record]]
structure_notation = "CC(=O)SCC(=O)c1ccc(NS(=O)(=O)c2ccc(Cl)c(C(F)(F)F)c2)cc1"
parameter = "IC50"
reading = "< 1 µM"

[[record]]
structure_notation = "CC(=O)SCC(=O)c1ccc(NS(=O)(=O)c2ccc(Cl)cc2)cc1"
parameter = "IC50"
reading = "< 1 µM"

[[record]]
structure_notation = "CC(=O)SCC(=O)c1ccc2c(c1)CCN2S(=O)(=O)c1ccccc1"
parameter = "IC50"
reading = "< 10 µM"


Now for another entry.
Entry `CN(C)c1ccc(C(=O)SCC(=O)c2ccc(NS(=O)(=O)c3ccc(OC(F)(F)F)cc3)cc2)cc1` needs its IC50 filled in; supply it.
< 10 µM

* * *

# Tested on: HDAC
# Protocol: In vitro HDAC-inhibition assay (Fluor de Lys fluorescent substrate)
# Format: biochemical
# Experimental Context: HDAC enzyme source (e.g. partially purified nuclear extract or immunopurified HDAC complexes)
Parameter: IC50

# annotated cases, reported IC50 shown
[[record]]
compound = "CC(=O)SCC(=O)c1sc(NS(=O)(=O)c2ccc(Cl)c(Cl)c2)nc1C [Example 43]"
reading = "< 50000 nM"

[[record]]
compound = "CC(=O)SCC(=O)c1ccc(NS(=O)(=O)c2ccccn2)cc1 [Example 51]"
reading = "< 1000 nM"

[[record]]
compound = "CC(=O)SCC(=O)c1ccc(NS(=O)(=O)c2ccc(Cl)cc2Cl)cc1 [Example 28]"
reading = "< 1000 nM"


Now for another entry.
Entry CC(=O)SCC(=O)c1cccc(NS(=O)(=O)c2ccc(OC(F)(F)F)cc2)c1 [Example 39] needs its IC50 filled in; supply it.
< 1000 nM
